Test: Cytotoxicity against HEK293 cells assessed as inhibition of cell growth incubated for 48 hrs by resazurin dye based assay
Type: toxicity
Settings: human
Entries annotated with measured IC50 at 48 h
reportedMetric: IC50 at 48 h

CCCCc1cn(CCCCCN2C(=O)CN(/N=C/c3ccc([N+](=O)[O-])o3)C2=O)nn1; > 100 µM
CCCCCc1ccc(-c2cn(CCCN3C(=O)CN(/N=C/c4ccc([N+](=O)[O-])o4)C3=O)nn2)cc1; 79.8 µM
O=C1CN(/N=C/c2ccc([N+](=O)[O-])o2)C(=O)N1CCCCCn1cc(CSc2ccccc2)nn1; 87.9 µM
CCCCCc1cn(CCCN2C(=O)CN(/N=C/c3ccc([N+](=O)[O-])o3)C2=O)nn1; 35.6 µM
CCCCCc1cn(CCCCCN2C(=O)CN(/N=C/c3ccc([N+](=O)[O-])o3)C2=O)nn1; 12 µM
O=C1CN(/N=C/c2ccc([N+](=O)[O-])o2)C(=O)N1CCCCCCn1cc(CSc2ccccc2)nn1; 19.6 µM
